Record form. Attribute: MIC90. Fill in for each entry.
- Tested on: Rhodotorula glutinis
- Assay remarks: Antimicrobial activity against Rhodotorula glutinis by broth microdilution method
- Format: functional
*1 amine or outer side, *2 acyl side, *3 side chain or, on linkers, in order; H or OH if unused. Where a SMILES comes first, the peptide text is derived from it. Bridges are numbered along the chain shown (N, C = ends). [ ]: non-standard residue; d: D form. The star is where a group is joined. hTyr(3S-OH,4S-OH,3'-OSO3H) = N[C@H](C(=O)O)[C@H](O)[C@@H](O)c1ccc(O)c(OS(=O)(=O)O)c1; pTerphenylCO(4''-OnC5H11) = CCCCCOc1ccc(-c2ccc(-c3ccc(C(=O)*)cc3)cc2)cc1; Orn(4R-OH,5R-OH) = O=C([C@H](C[C@@H](O)[C@@H](O)N[*:3])N[*:1])[*:2]; hTyr(3S-OH,4S-OH) = N[C@H](C(=O)O)[C@H](O)[C@@H](O)c1ccc(O)cc1; Pro(3S-OH,4S-Me) = C[C@H]1CN[C@H](C(=O)O)[C@H]1O; X1 = CCCCCOc1ccc(-c2cc(-c3ccc(C(=O)*)cc3)no2)cc1; Gln(3R-OH) = NC(=O)C[C@@H](O)[C@H](N)C(=O)O; Hyp = O=C(O)[C@@H]1C[C@@H](O)CN1

Consider the compound CCCCCOc1ccc(-c2ccc(-c3ccc(C(=O)N[C@H]4C[C@@H](O)[C@@H](O)NC(=O)[C@@H]5[C@@H](O)[C@@H](C)CN5C(=O)[C@H]([C@@H](C)O)NC(=O)[C@H]([C@H](O)[C@@H](O)c5ccc(O)cc5)NC(=O)[C@@H]5C[C@@H](O)CN5C(=O)[C@H]([C@@H](C)O)NC4=O)cc3)cc2)cc1 [ANIDULAFUNGIN] ({pTerphenylCO(4''-OnC5H11)}-[Orn(4R-OH,5R-OH)]T[Hyp][hTyr(3S-OH,4S-OH)]T[Pro(3S-OH,4S-Me)]; lactam 1-C) and give its measured MIC90.
> 16 µg/mL

Consider the compound OC(Cn1cncn1)(Cn1cncn1)c1ccc(F)cc1F and give its measured MIC90.
> 64 µg/mL

Consider the compound C[C@@H](c1ncncc1F)[C@](O)(Cn1cncn1)c1ccc(F)cc1F and give its measured MIC90.
> 8 µg/mL

Consider the compound CC[C@H](C)C[C@H](C)CCCCCCCCC(=O)N[C@H]1C[C@@H](O)[C@@H](NCCN)NC(=O)[C@@H]2[C@@H](O)CCN2C(=O)[C@H]([C@H](O)CCN)NC(=O)[C@H]([C@H](O)[C@@H](O)c2ccc(O)cc2)NC(=O)[C@@H]2C[C@@H](O)CN2C(=O)[C@H]([C@@H](C)O)NC1=O and give its measured MIC90.
> 16 µg/mL

Consider the compound CC[C@@H]([C@H](C)O)n1ncn(-c2ccc(N3CCN(c4ccc(OC[C@@H]5CO[C@@](Cn6cncn6)(c6ccc(F)cc6F)C5)cc4)CC3)cc2)c1=O and give its measured MIC90.
> 8 µg/mL

Consider the compound C[C@@H]1[C@H](O)[C@@H](C)/C=C/C=C/C=C/C=C/C=C/C=C/C=C/[C@H](O[C@@H]2O[C@H](C)[C@@H](O)[C@H](N)[C@@H]2O)C[C@@H]2O[C@](O)(C[C@@H](O)C[C@@H](O)[C@H](O)CC[C@@H](O)C[C@@H](O)CC(=O)O[C@H]1C)C[C@H](O)[C@H]2C(=O)O and give its measured MIC90.
8 µg/mL

Consider the compound Nc1nc(=O)[nH]cc1F and give its measured MIC90.
> 64 µg/mL

Consider the compound CCC(C)n1ncn(-c2ccc(N3CCN(c4ccc(OCC5COC(Cn6cncn6)(c6ccc(Cl)cc6Cl)O5)cc4)CC3)cc2)c1=O (centres undefined) and give its measured MIC90.
> 8 µg/mL

Consider the compound CCCCCOc1ccc(-c2cc(-c3ccc(C(=O)N[C@H]4C[C@@H](O)[C@@H](O)NC(=O)[C@@H]5[C@@H](O)[C@@H](C)CN5C(=O)[C@H]([C@H](O)CC(N)=O)NC(=O)[C@H]([C@H](O)[C@@H](O)c5ccc(O)c(OS(=O)(=O)O)c5)NC(=O)[C@@H]5C[C@@H](O)CN5C(=O)[C@H]([C@@H](C)O)NC4=O)cc3)no2)cc1 [MICAFUNGIN] (X1-[Orn(4R-OH,5R-OH)]T[Hyp][hTyr(3S-OH,4S-OH,3'-OSO3H)][Gln(3R-OH)][Pro(3S-OH,4S-Me)]; lactam 1-C) and give its measured MIC90.
> 16 µg/mL

====

- Test system: Alternaria alternata
- Assay remarks: Antimicrobial activity against Alternaria alternata by broth microdilution method
- Assay type: functional
*1 amine or outer side, *2 acyl side, *3 side chain or, on linkers, in order; H or OH if unused. Where a SMILES comes first, the peptide text is derived from it. Bridges are numbered along the chain shown (N, C = ends). [ ]: non-standard residue; d: D form. The star is where a group is joined. pTerphenylCO(4''-OnC5H11) = CCCCCOc1ccc(-c2ccc(-c3ccc(C(=O)*)cc3)cc2)cc1; Orn(4R-OH,5R-OH) = O=C([C@H](C[C@@H](O)[C@@H](O)N[*:3])N[*:1])[*:2]; hTyr(3S-OH,4S-OH) = N[C@H](C(=O)O)[C@H](O)[C@@H](O)c1ccc(O)cc1; Pro(3S-OH,4S-Me) = C[C@H]1CN[C@H](C(=O)O)[C@H]1O; Hyp = O=C(O)[C@@H]1C[C@@H](O)CN1
Record form. Attribute: MIC90. Fill in for each entry.

What MIC90 appears in the records for this compound with Alternaria alternata? CCC(C)n1ncn(-c2ccc(N3CCN(c4ccc(OCC5COC(Cn6cncn6)(c6ccc(Cl)cc6Cl)O5)cc4)CC3)cc2)c1=O (stereo not drawn) [ITRACONAZOLE]
> 8 µg/mL

What MIC90 appears in the records for this compound with Alternaria alternata? CCCCCOc1ccc(-c2ccc(-c3ccc(C(=O)N[C@H]4C[C@@H](O)[C@@H](O)NC(=O)[C@@H]5[C@@H](O)[C@@H](C)CN5C(=O)[C@H]([C@@H](C)O)NC(=O)[C@H]([C@H](O)[C@@H](O)c5ccc(O)cc5)NC(=O)[C@@H]5C[C@@H](O)CN5C(=O)[C@H]([C@@H](C)O)NC4=O)cc3)cc2)cc1 [ANIDULAFUNGIN] ({pTerphenylCO(4''-OnC5H11)}-[Orn(4R-OH,5R-OH)]T[Hyp][hTyr(3S-OH,4S-OH)]T[Pro(3S-OH,4S-Me)]; lactam 1-C)
> 16 µg/mL

What MIC90 appears in the records for this compound with Alternaria alternata? CC[C@H](C)C[C@H](C)CCCCCCCCC(=O)N[C@H]1C[C@@H](O)[C@@H](NCCN)NC(=O)[C@@H]2[C@@H](O)CCN2C(=O)[C@H]([C@H](O)CCN)NC(=O)[C@H]([C@H](O)[C@@H](O)c2ccc(O)cc2)NC(=O)[C@@H]2C[C@@H](O)CN2C(=O)[C@H]([C@@H](C)O)NC1=O [CASPOFUNGIN]
> 16 µg/mL

====

Record form. Attribute: MIC90. Fill in for each entry.
- Tested on: Pichia kudriavzevii
- Assay remarks: Antimicrobial activity against Candida krusei by broth microdilution method
- Type: functional
*1 amine or outer side, *2 acyl side, *3 side chain or, on linkers, in order; H or OH if unused. Where a SMILES comes first, the peptide text is derived from it. Bridges are numbered along the chain shown (N, C = ends). [ ]: non-standard residue; d: D form. The star is where a group is joined. hTyr(3S-OH,4S-OH,3'-OSO3H) = N[C@H](C(=O)O)[C@H](O)[C@@H](O)c1ccc(O)c(OS(=O)(=O)O)c1; Orn(4R-OH,5R-OH) = O=C([C@H](C[C@@H](O)[C@@H](O)N[*:3])N[*:1])[*:2]; Pro(3S-OH,4S-Me) = C[C@H]1CN[C@H](C(=O)O)[C@H]1O; X1 = CCCCCOc1ccc(-c2cc(-c3ccc(C(=O)*)cc3)no2)cc1; Gln(3R-OH) = NC(=O)C[C@@H](O)[C@H](N)C(=O)O; Hyp = O=C(O)[C@@H]1C[C@@H](O)CN1
Field: numeric (µg/mL). Do not append units.

Consider the molecule CCCCCOc1ccc(-c2cc(-c3ccc(C(=O)N[C@H]4C[C@@H](O)[C@@H](O)NC(=O)[C@@H]5[C@@H](O)[C@@H](C)CN5C(=O)[C@H]([C@H](O)CC(N)=O)NC(=O)[C@H]([C@H](O)[C@@H](O)c5ccc(O)c(OS(=O)(=O)O)c5)NC(=O)[C@@H]5C[C@@H](O)CN5C(=O)[C@H]([C@@H](C)O)NC4=O)cc3)no2)cc1 [MICAFUNGIN] (X1-[Orn(4R-OH,5R-OH)]T[Hyp][hTyr(3S-OH,4S-OH,3'-OSO3H)][Gln(3R-OH)][Pro(3S-OH,4S-Me)]; lactam 1-C) and give its measured MIC90.
0.06

Consider the molecule Nc1nc(=O)[nH]cc1F and give its measured MIC90.
8

Consider the molecule CC[C@H](C)C[C@H](C)CCCCCCCCC(=O)N[C@H]1C[C@@H](O)[C@@H](NCCN)NC(=O)[C@@H]2[C@@H](O)CCN2C(=O)[C@H]([C@H](O)CCN)NC(=O)[C@H]([C@H](O)[C@@H](O)c2ccc(O)cc2)NC(=O)[C@@H]2C[C@@H](O)CN2C(=O)[C@H]([C@@H](C)O)NC1=O and give its measured MIC90.
0.5

Consider the molecule CCC(C)n1ncn(-c2ccc(N3CCN(c4ccc(OCC5COC(Cn6cncn6)(c6ccc(Cl)cc6Cl)O5)cc4)CC3)cc2)c1=O (stereo not given) and give its measured MIC90.
0.25

Consider the molecule C[C@@H](c1ncncc1F)[C@](O)(Cn1cncn1)c1ccc(F)cc1F and give its measured MIC90.
0.5
